B1: library; numbered along this chain (parent)
chain: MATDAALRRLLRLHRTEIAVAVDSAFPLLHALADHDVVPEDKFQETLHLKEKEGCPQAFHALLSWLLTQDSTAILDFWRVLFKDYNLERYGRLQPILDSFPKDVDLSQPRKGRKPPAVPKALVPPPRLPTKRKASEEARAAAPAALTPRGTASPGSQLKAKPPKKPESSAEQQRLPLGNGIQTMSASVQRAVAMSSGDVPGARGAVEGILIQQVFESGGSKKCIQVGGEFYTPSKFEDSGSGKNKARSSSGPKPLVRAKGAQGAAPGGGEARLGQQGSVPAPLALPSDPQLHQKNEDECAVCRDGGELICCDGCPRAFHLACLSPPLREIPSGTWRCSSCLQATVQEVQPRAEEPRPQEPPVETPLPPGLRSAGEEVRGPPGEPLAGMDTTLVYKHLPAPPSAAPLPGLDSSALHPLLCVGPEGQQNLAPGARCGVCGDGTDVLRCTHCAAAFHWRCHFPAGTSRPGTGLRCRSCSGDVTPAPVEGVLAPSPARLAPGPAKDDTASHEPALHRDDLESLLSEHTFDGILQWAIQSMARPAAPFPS

# Variants of: B1
# PROCEDURE_TEXT: AIRE transcriptional activation functional score (insulin promoter-GFP; nonsense median 0, synonymous median 1) (normalised score); higher = higher AIRE activity (more reporter activation)
# ASSAY_SETUP: with insulin promoter-GFP reporter in HEK293
# label = 1 if AIRE transcriptional activation functional score >= 1 else -1

>>> df
   mutant_name  class
0        A493L      1
1         S71V     -1
2        M184F     -1
3        L470S     -1
4        M388Y     -1
5        V301W      1
6        A537S      1
7        F453I     -1
8        L320Q     -1
9        S324F      1
